- Test system: HMM-mfMSR1 (monkey MSR1 extracellular domain)
- Sequence (as listed by the source): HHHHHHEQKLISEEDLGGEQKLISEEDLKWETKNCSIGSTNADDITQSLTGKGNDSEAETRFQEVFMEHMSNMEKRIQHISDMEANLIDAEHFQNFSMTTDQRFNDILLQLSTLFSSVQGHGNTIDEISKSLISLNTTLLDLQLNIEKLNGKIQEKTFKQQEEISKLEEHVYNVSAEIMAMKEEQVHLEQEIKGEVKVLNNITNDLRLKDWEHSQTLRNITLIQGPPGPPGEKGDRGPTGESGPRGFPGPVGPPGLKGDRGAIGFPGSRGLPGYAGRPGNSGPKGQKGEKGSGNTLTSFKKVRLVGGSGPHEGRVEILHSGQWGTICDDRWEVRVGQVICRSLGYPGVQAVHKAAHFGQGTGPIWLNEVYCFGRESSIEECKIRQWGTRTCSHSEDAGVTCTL
- Protocol: Biacore surface plasmon resonance binding kinetics of anti-MSR1 mAbs, antibody-capture format
- Assay Conditions: 37° C.; analyte HMM-mfMSR1; dissociative half-life; NB = no binding observed
Form field: t½ (one value per entry).
Measurement Label: t½

[[record]]
molecule = "H1H21227N-N297Q: \"modified versions of 21227N (H1H21227N-N297Q and H1H21227N-N297D)\"; anti-MSR1 antibody \"with a N297Q single point mutation\" (antibody, V domains shown) VH: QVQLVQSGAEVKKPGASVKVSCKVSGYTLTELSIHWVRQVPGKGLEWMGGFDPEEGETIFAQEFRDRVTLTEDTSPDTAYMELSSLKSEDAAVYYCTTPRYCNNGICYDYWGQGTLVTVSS VL: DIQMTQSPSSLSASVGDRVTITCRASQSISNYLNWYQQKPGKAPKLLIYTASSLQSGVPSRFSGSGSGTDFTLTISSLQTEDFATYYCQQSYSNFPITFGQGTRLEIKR"
data_value = "17.82 h"

[[record]]
molecule = "H1H21227N-N297D: \"The 21227N antibody was also produced as a third version with a N297D mutation\" (antibody, V domains shown) VH: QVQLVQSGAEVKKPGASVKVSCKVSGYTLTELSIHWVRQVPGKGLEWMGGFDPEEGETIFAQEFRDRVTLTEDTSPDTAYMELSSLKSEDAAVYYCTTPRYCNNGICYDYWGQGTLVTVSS VL: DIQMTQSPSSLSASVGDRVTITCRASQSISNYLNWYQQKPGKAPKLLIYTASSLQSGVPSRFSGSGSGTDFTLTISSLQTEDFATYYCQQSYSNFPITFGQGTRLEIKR"
data_value = "7.95 h"

[[record]]
molecule = "H1H21231N: \"anti-MSR1 antibodies ... (21227N, 21231N, 21234N) were produced with the original human Fcγ portion\"; \"H1H\" = human IgG1 Fc (antibody, V domains shown, human IgG1 Fc, \"anti-MSR1 antibodies ; (21227N, 21231N, 21234N) were produced with the original human Fcγ portion\"; \"H1H\" = human IgG1 Fc) VH: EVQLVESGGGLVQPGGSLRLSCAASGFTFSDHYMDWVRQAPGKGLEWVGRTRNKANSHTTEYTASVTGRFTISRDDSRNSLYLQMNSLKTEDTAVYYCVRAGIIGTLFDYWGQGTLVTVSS VL: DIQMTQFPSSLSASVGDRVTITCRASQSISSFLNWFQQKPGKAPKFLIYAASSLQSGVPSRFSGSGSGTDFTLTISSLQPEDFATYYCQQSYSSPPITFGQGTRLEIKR"
data_value = "2.47 h"

